For reference, the following pKi results for Rho-associated protein kinase 1 (Homo sapiens, UniProt Q13464) were taken from various sources.
pKi: −log10 of the molar value.

Task: State pKi on Rho-associated protein kinase 1 (Homo sapiens, UniProt Q13464). Entry: COCC1CN(Cc2cc3n(n2)C(c2ccc(C(F)(F)F)c(F)c2)C(C(=O)Nc2ccc4cnccc4c2)=C(C)N3)C1 (centres unmarked)
Output: > 7.30

Task: State pKi on Rho-associated protein kinase 1 (Homo sapiens, UniProt Q13464). Entry: `O=C(Cc1ccc(OCCCC2CCNCC2)cc1)Nc1cc(-c2ccnc(Cl)c2)cs1`
Output: > 7.00

Task: State pKi on Rho-associated protein kinase 1 (Homo sapiens, UniProt Q13464). Entry: `N[C@@H](Cc1ccc(Oc2ccnc3[nH]cc(Br)c23)cc1)C(=O)NC1CCOCC1`
Output: > 8.52

---
Task: State pKi on Rho-associated protein kinase 1 (Homo sapiens, UniProt Q13464). Entry: `CNc1cc(-c2csc(NC(=O)Cc3ccc(F)cc3F)n2)ccn1`
Output: 6.00 to 7.00

###

For reference, the following pKi results for Rho-associated protein kinase 1 (Homo sapiens, UniProt Q13464) were taken from various sources.
pKi: −log10 of the molar value.

Completed entries (count: 5):
Task: State pKi on Rho-associated protein kinase 1 (Homo sapiens, UniProt Q13464). Entry: `Cc1cc(-c2csc(NC(=O)Cc3ccc(F)cc3F)n2)ccn1`
Output: 6.00 to 7.00

Task: State pKi on Rho-associated protein kinase 1 (Homo sapiens, UniProt Q13464). Entry: `NC(=O)c1ccc(-c2c[nH]c3ncc(Cl)cc23)nc1NCc1ccccc1`
Output: 5.30 to 6.30

Task: State pKi on Rho-associated protein kinase 1 (Homo sapiens, UniProt Q13464). Entry: `CC(=O)N1[C@H](C)CN(c2cccc(-c3c[nH]c4ncc(NC(=O)/C=C/Cl)cc34)n2)C[C@@H]1C`
Output: > 6.30

Task: State pKi on Rho-associated protein kinase 1 (Homo sapiens, UniProt Q13464). Entry: `CCNc1cc(-c2csc(NC(=O)Cc3ccc(F)cc3F)n2)ccn1`
Output: 6.00 to 7.00

Task: State pKi on Rho-associated protein kinase 1 (Homo sapiens, UniProt Q13464). Entry: `NCc1cc(F)c(Oc2ccnc3[nH]cc(-c4ccnc(NCc5cccnc5)c4)c23)c(F)c1`
Output: > 8.52

---
Task: State pKi on Rho-associated protein kinase 1 (Homo sapiens, UniProt Q13464). Entry: O=C(Cc1cccc(S(=O)(=O)NCC2CCCO2)c1)Nc1nc(-c2c[nH]c3ncccc23)cs1 (centres unmarked)
Output: > 6.30

Task: State pKi on Rho-associated protein kinase 1 (Homo sapiens, UniProt Q13464). Entry: Clc1cnc2[nH]cc(-c3cccc(NC4CCc5ccccc54)n3)c2c1 (centres unmarked)
Output: 5.30 to 6.30

Task: State pKi on Rho-associated protein kinase 1 (Homo sapiens, UniProt Q13464). Entry: Cc1c[nH]c2nccc(Oc3ccc(C4CCNC4)cc3)c12 (centres unmarked)
Output: > 8.30

###

pKi: −log10 of the molar value.
For reference, the following pKi results for UniProt:Q13464 were taken from various sources.

Completed entries (count: 3):
Task: State, in one line, measured pKi of CC1=C(C(=O)Nc2ccc3cnccc3c2)C(c2ccc(C(F)(F)F)c(F)c2)n2nc(C(=O)N(C)CC3CCN(C)CC3)cc2N1 (stereo not shown)
Output: > 7.30

Task: State, in one line, measured pKi of `Cc1cnc(-c2c[nH]c3ncc(Cl)cc23)nc1N[C@@H](C)c1ccc(F)cc1`
Output: 5.30 to 6.30

Task: State, in one line, measured pKi of `Cc1c[nH]c2nccc(Oc3ccc(C[C@H](N)C(=O)NC4(C(N)=O)CCN(C5CC5)CC4)cc3F)c12`
Output: > 8.52

---
Task: State, in one line, measured pKi of `COc1cccc(CC(=O)Nc2nc(-c3c[nH]c4ncccc34)c(C)s2)c1`
Output: > 6.30

Task: State, in one line, measured pKi of CC1=C(C(=O)Nc2ccc3cnccc3c2)C(c2ccc(C(F)(F)F)c(F)c2)n2nc(CN)cc2N1 (stereo not shown)
Output: > 7.30

Task: State, in one line, measured pKi of `CC(=O)N1[C@H](C)CN(c2nc(-c3c[nH]c4ncc(Cl)cc34)ccc2-c2nnn[nH]2)C[C@@H]1C`
Output: 5.30 to 6.30

Task: State, in one line, measured pKi of CC1=C(C(=O)Nc2ccc3[nH]ncc3c2)C(C2CCN(C)CC2)n2nc(C(F)(F)F)cc2N1 (stereo not shown)
Output: < 6.30
